This collection of values is drawn from paper PMC6883073.

# system.under.test: VEGF-165 (UniProt P15692-4 27-191)
# Sequence (P15692 other isoform, or with tags, fused parts or gaps): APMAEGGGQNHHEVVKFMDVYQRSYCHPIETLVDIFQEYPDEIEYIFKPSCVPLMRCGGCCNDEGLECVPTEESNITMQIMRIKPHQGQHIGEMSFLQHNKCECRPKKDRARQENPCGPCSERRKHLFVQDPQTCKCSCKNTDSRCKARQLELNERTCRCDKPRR
# assay.overview: EMSA; top band only (1 aptamer:2 protein), apparent; PBS + 0.005% Tween 20, pH 7.4 (+50 mM KCl for aptamer B); 2.5 nM aptamer heated at 90 C and cooled, 1 h incubation (temperature not stated, RT?); 7.5% PAGE in 0.5x TB pH 8.3 at 4 C
# settings: protein: recombinant; tags: His-tag; chain copies: 2; label: 5' fluorescein
Please provide measured pKd for the entries that follow.
Schema: pKd number; meaning minus log10 of the concentration expressed in molar units.

Enquiry: Given the entry CT0C (structured_DNA) DNA: CAATTGGGCCCGTCCGTATGGTGGGTCAATTGGGCCCGTCCGTATGGTGGGT , report its measured pKd.
Return: 7.13

Enquiry: Given the entry AT10C (structured_DNA) DNA: GCCCGTCTTCCAGACAAGAGTGCAGGGCTTTTTTTTTTCAATTGGGCCCGTCCGTATGGTGGGT , report its measured pKd.
Return: 7.06

Enquiry: Given the entry AT20A (structured_DNA) DNA: GCCCGTCTTCCAGACAAGAGTGCAGGGCTTTTTTTTTTTTTTTTTTTTGCCCGTCTTCCAGACAAGAGTGCAGGGC , report its measured pKd.
Return: 6.84
